Substrate: S=C=NCCc1ccccc1
Assay: purified protein
Assay type: biochemical, Synechocystis sp. PCC 6803
Conditions: fixed saturating GSH, 100 mM phosphate pH 6.5, 25 °C
RECORDED_METRIC: Km (µM)
The reply should be a number in µM, with the unit left off.

Km measured on SynGSTC1 (Sll0067) (Synechocystis sp. PCC 6803 substr. Kazusa; S10A) (protein, Ni-NTA and size exclusion; about 180 residues; two-fold dimer in crystal) MIKLYGAPQARASIIQWYLEELSLPYEFVNVNLKEGEHRQAPYLAINPFGKVPAIADGNFHLWESGAILLYLAEKASTIPADAQARALVNQWILFANSTLANGLFIEAVREKEMPRLLQSLEKILGRSPFILGEKFSVVDVAVGSILAYVPIMLKLNFDDYPAVAAYVQGLVQRPAFQASIGAR = 89.7

SynGSTC1 (Sll0067) (Synechocystis sp. PCC 6803 substr. Kazusa; R11A) (protein, Ni-NTA and size exclusion; about 180 residues; two-fold dimer in crystal) MIKLYGAPQSAASIIQWYLEELSLPYEFVNVNLKEGEHRQAPYLAINPFGKVPAIADGNFHLWESGAILLYLAEKASTIPADAQARALVNQWILFANSTLANGLFIEAVREKEMPRLLQSLEKILGRSPFILGEKFSVVDVAVGSILAYVPIMLKLNFDDYPAVAAYVQGLVQRPAFQASIGAR has a reported Km of 108.4

Measured Km of SynGSTC1 (Sll0067) (Synechocystis sp. PCC 6803 substr. Kazusa; S10C) (protein, Ni-NTA and size exclusion; about 180 residues; two-fold dimer in crystal) MIKLYGAPQCRASIIQWYLEELSLPYEFVNVNLKEGEHRQAPYLAINPFGKVPAIADGNFHLWESGAILLYLAEKASTIPADAQARALVNQWILFANSTLANGLFIEAVREKEMPRLLQSLEKILGRSPFILGEKFSVVDVAVGSILAYVPIMLKLNFDDYPAVAAYVQGLVQRPAFQASIGAR : 33.0

Km reported for this protein SynGSTC1 (Sll0067) (Synechocystis sp. PCC 6803 substr. Kazusa; S10T) (protein, Ni-NTA and size exclusion; about 180 residues; two-fold dimer in crystal) MIKLYGAPQTRASIIQWYLEELSLPYEFVNVNLKEGEHRQAPYLAINPFGKVPAIADGNFHLWESGAILLYLAEKASTIPADAQARALVNQWILFANSTLANGLFIEAVREKEMPRLLQSLEKILGRSPFILGEKFSVVDVAVGSILAYVPIMLKLNFDDYPAVAAYVQGLVQRPAFQASIGAR : 33.6

According to the records, this protein SynGSTC1 (Sll0067) (Synechocystis sp. PCC 6803 substr. Kazusa) (protein, Ni-NTA and size exclusion; about 180 residues; two-fold dimer in crystal) MIKLYGAPQSRASIIQWYLEELSLPYEFVNVNLKEGEHRQAPYLAINPFGKVPAIADGNFHLWESGAILLYLAEKASTIPADAQARALVNQWILFANSTLANGLFIEAVREKEMPRLLQSLEKILGRSPFILGEKFSVVDVAVGSILAYVPIMLKLNFDDYPAVAAYVQGLVQRPAFQASIGAR displays Km of 33.8
